test: yeast display, Sf9 membrane polyspecificity reagent, FACS + sequencing; frameworks hold sequencing errors
measurement.name: polyreactivity (PSR sort gate)

Solved entries (count: 5):
entry_sequence=QVQLVESGGGLVQAGGSLRLSCAASGFIFHVYAMGWYRQAPGKERELVARITSSGGNTFYADSVKGRFTISRDNAKNTVYLQMNSLKPEDTAVYYCAKRYRYSVGWPVKNSAFGYWGQGTQVTVSS result="low polyreactivity"
entry_sequence=QVQLVESGGGLVQAGGSLRLSCAASGRTFGVYAMGWYRQAPGKERELVAGIRWRGGSTYYADSVKGRFTISRDNAKNTVYLQMNSLKPEDTAVYYCAADVYLVKYDYWGQCTQVTVSS result="low polyreactivity"
entry_sequence=QVQLVESGGGLVQAGGSLRLSCAASGSTIRANAMGWYRQAPGKERELVAAITKNGGSTYYADSVKGRFTISRDNAKNTVYLQMNSLKPEDTAVYYCAARRSSRRPPYYYWGQGTQVTVSS result="high polyreactivity"
entry_sequence=QVQLVESGGGLVQAGGSLRLSCAASGNTFWQYAMGWYRQAPGKERELVAAITRSTGSTYYADSVKGRFTISRDNAKNTVYLQMNSLKPEDTAVYYCAADFYRHYFRVDSWGQGTQVTVSS result="low polyreactivity"
entry_sequence=QVQLVESGGCLVQAGGSLRLSCAASGITFRSYTMGWYRQAPGQESELVAAISYSAGSTYYADSVKGRFTISRDNAKNTVYLQMNSLKPEDTAVYYCAARPRLVVLVIRFYYWGQGTQVTVSS result="high polyreactivity"

Input line: Give the measured polyreactivity (PSR sort gate) of QVQLVESGGGLVQAGGRLRLSCPASGRTFPPYAMGWYRQAPGKERELVGAISRRAGTTYYADSVKGRFTISRDNAKNTVYLQMNSLKPEDTAVYYCAALTESSSYGYWGLGTQVTVSS .
Output line: low polyreactivity

Input line: Give the measured polyreactivity (PSR sort gate) of QVQLVESGGGLVQAGGSLRLSCAASGRTFRFYARGWYRQAPGKERELVAAIRNGGRTNYADSVKGRFTISRDNAKISVFLQMNSLKPEDTAVYYCAIQPGISYRHYDYWGQGTQVTVSS .
Output line: high polyreactivity

Input line: Give the measured polyreactivity (PSR sort gate) of QVQLVESGGGLVQAGGSLRLSCAASGFTFYAYAMGWYRQAPGKERELVAAISTSGTDTYYADSVKGRFTISRDNAKNTVYLQMNSLKPEDTAVYYCAAELYLYGFYEPIYPYSYDYWGHGTQVTVSS .
Output line: low polyreactivity

Input line: Give the measured polyreactivity (PSR sort gate) of QVQLVESGGGLVQAGGSLRLSCAASGRIFSIYAMGWYRQAPGKERDMVAASSFRGTSTYADSVKGRFTISRDNAKNTVYLQMNWLKPEDTAVYYCAVTGFDVLWPSLGGELDYWGQGTQVTVSS .
Output line: low polyreactivity

Input line: Give the measured polyreactivity (PSR sort gate) of QVQLVESGGGLVQAGGSLRLSCAASGRIFRSNAKGWYRQAPRKERELVAAISGGGSTYYADSVKGRFTISRDNAKNTVYLQMNSLKPEDTAVYYCAAGRHLAYWSRDYYYWGQGTQVTVSS .
Output line: high polyreactivity

Input line: Give the measured polyreactivity (PSR sort gate) of QVQLVESGGGLVQAGGSLRLSCAASGFIFRYYTMGWYRQAPGKERELVASISRRGGSTYYADSVKGRFTISRDNAKNIVYVQMNSLKEVDTAVYYCNADRRLGDGYWGQGTQVTVSS .
Output line: high polyreactivity

Input line: Give the measured polyreactivity (PSR sort gate) of QVQLQESGGGLVQASGSLRLSCAASGNIFPDYLMGWYRLAPGKEREFVANITGGSTTNYADSVKGRFTISRDNATNTVYLQMNSLKPEDTAVYYCEVNFGTVVLYLYWGQGTQVTVSS .
Output line: high polyreactivity

Input line: Give the measured polyreactivity (PSR sort gate) of QVHLVETGGGLVQAGGSLRLSCAASGYIFGWYAMGWYRQAPGKERELVAAITRGGSTNYADSVKGRFTISRDNAKNTVYLLMNSLKPEDTAVYYCNTEDWAVGSPEVEYEYDYWGQGTQVTVSS .
Output line: low polyreactivity

Input line: Give the measured polyreactivity (PSR sort gate) of QVQLVDSGGGLVQAGGSLRLSCAASGRIFYFNAMGWYREAPGKERELVAAISKSGGSTYYADSVKGRFTISRDNAKNTVYLQMNSLKPEDTAVYYCAAGFWYYSYPTLYEYGYWGQGTQVTVSS .
Output line: low polyreactivity

###

assay: yeast display, Sf9 membrane polyspecificity reagent, FACS + sequencing; frameworks hold sequencing errors
measurement.name: polyreactivity (PSR sort gate)

entry_sequence=QVHLVESGGGLVQAGGSLRLSCAASGFIFYLYAMGWYRQAPGKERELVASITSSGRTNYADSVKGRFTISRDNAKNTVYLQMNSLKPEDTAVYYCNKRYSKGDEYYYWGQGTQVTVSS result="high polyreactivity"
entry_sequence=QVQLVESAGGLVQAGGSLRLICAASGSILQPYAMGWYRQAPGKERELVAYISYSGASTYYADSVKGRFTISRDNPKNTVYLQLNSLKPEDPAVYYCNARYWYHYLTYDYSGQGTQVTVSS result="high polyreactivity"

###

assay: yeast display, Sf9 membrane polyspecificity reagent, FACS + sequencing; frameworks hold sequencing errors
measurement.name: polyreactivity (PSR sort gate)

entry_sequence=QVQLVESGGGLVQAGGSLRLSCAASGSTIKSNVLGWYRQAPGKERELVAAISSGDSTYYADSVKGRFTISRDNGKNTVYFQLNSLKPVDTAVFYCAARLGLQLVDTPDNDYWGQGTEVTVSS measurement_name="polyreactivity (PSR sort gate)" result="low polyreactivity"
entry_sequence=QVQLVESGGGLVQAGGSLRLSCAAAGLIFRFYAMGWYRQSPGKERELVAAISSRGGSRYYADSVKGRFTISRDNAKNTVYLQMNSLKPEDTAVYYCAAAVRKMAYPHYEYGYWGQGTQVTVSS measurement_name="polyreactivity (PSR sort gate)" result="high polyreactivity"
entry_sequence=QVQLVESGGGLVQAGGSLRLSCAASGRIFPVYAMGWYRQAPGKERELVASISSSGARTYYADSVKGRFTISRDNAKNTVYLQMNSLKPEDTAVYYCNAVRYFSSHSFISDYWGQGTQVTVSS measurement_name="polyreactivity (PSR sort gate)" result="low polyreactivity"
entry_sequence=QVQLVESGGGLVQAGGSLRLSCAASGFTFGVYAMGWYRQAPGKERELVAAISVSGGRTYYADSVKGRFTISRDNAKNTVYLQMNSLKPEDTAVYYCAADLGLKTSSRRTSMYYWGQGTQVTVSS measurement_name="polyreactivity (PSR sort gate)" result="high polyreactivity"
entry_sequence=QVQLVESGGGLVQAGGSLRLSCAASGRTFYKYMGWYRQAPGKERELVAAIRWSGGSTYYADSVKGRFTISRDNAKNTVYLQMNSLKPEDTAVYYCAAGKQAPAVNYGYYYWGQGTQVTVSS measurement_name="polyreactivity (PSR sort gate)" result="low polyreactivity"

Input line: Give the measured polyreactivity (PSR sort gate) of QVQLVETGGGLVQAGGSLRLSCADSGRIFRYYVMGWYRQAPGKERELVAAISRSGGSTYYADSVKGRFTISRDNAKNTVYLQMNSLKPEETAVYYCAKRVSTYGFSGYDYWGQGTQVTVSS .
Output line: high polyreactivity

Input line: Give the measured polyreactivity (PSR sort gate) of QVQLVESGGGLVQAGGSLRLSCAASGSARYAMGWYRQATGNERELVAAISRRGGSTYYADSVKGRFTISRDNATKTVYLHMNSLKPEDTAVYYCAADGRISYDYWGQGTQVTVSS .
Output line: low polyreactivity

Input line: Give the measured polyreactivity (PSR sort gate) of KVQLVESGGGLVQAGGSLRLSCAASGYIVSYYDMGWYRQAPGKERELVAAITAGVAGTYYADSVKGRLTISRDNAKNSVYLQMNSLTPEDTAVFYCAADRYITTVVRMYYSGQGTQVTVSS .
Output line: low polyreactivity

Input line: Give the measured polyreactivity (PSR sort gate) of QVQLVESGGGLVQAGGSLRLSCAASGSNFLRNAMGWYRQAPGKERELVAAIRWNAGSTYYADSVKGRFTISRDNAKNTVYLQMNSLKPEDTAVYFCAADGYYGRGYWIRTLKFDYWGQGTQVTVSS .
Output line: high polyreactivity

Input line: Give the measured polyreactivity (PSR sort gate) of QVQLVESGGGLVQAGGSLRLSCAASGSIFIQYAMGWYRQAPGKERELVAAITSGGGSTYYADSVKGRFTISRDNAKNTVYLQMNSLKPEDTAVYYCAVDRTRRPAVPYVTLDRGYCGQGTQVTVSS .
Output line: low polyreactivity

Input line: Give the measured polyreactivity (PSR sort gate) of QVQLVESGGGLVQAGGSLRLSCAASGRTFDSNAMGWYRQAPGKERELVAAISWSGGSTYYADSVKGRFTISRDNAKNTVYLQMNSLKPEDTAVYYCNRLGRHAPATRYGYWGQGTQVTVSS .
Output line: high polyreactivity
